- assay-info: Photophysical measurements
- Type: physicochemical
- experimental-setup: Ar-purged methanol, fluorescence detection
parameter: τS (lifetime of the lowest singlet excited state) (ns)
Numbers only, in ns.

Below are worked cases with known answers.
* CC1(C)Cc2cc3[nH]c(cc4nc(cc5[nH]c(cc1n2)cc5C(=O)N1CC[N+](C)(C)CC1)CC4(C)C)cc3C(=O)N1CC[N+](C)(C)CC1.[Cl-].[Cl-] | 3.8
* CC1(C)Cc2cc3[nH]c(cc4nc(cc5[nH]c(cc1n2)cc5C(=O)/C=C/c1cc(O)cc(O)c1)CC4(C)C)cc3C(=O)/C=C/c1cc(O)cc(O)c1 | 3.4
* CC1(C)Cc2cc3[nH]c(cc4nc(cc5[nH]c(cc1n2)cc5C(=O)O)CC4(C)C)cc3C(=O)O | 3.7
* CC1(C)Cc2cc3[nH]c(cc4nc(cc5[nH]c(cc1n2)cc5-c1cc(O)cc(O)c1)CC4(C)C)cc3-c1cc(O)cc(O)c1 | 3.7
* CC1(C)Cc2cc3[nH]c(cc4nc(cc5[nH]c(cc1n2)cc5CN(CCO)CCO)CC4(C)C)cc3CN(CCO)CCO | 3.8
* COCCN(CCOC)C(=O)c1cc2cc3nc(cc4[nH]c(cc5nc(cc1[nH]2)CC5(C)C)cc4C(=O)N(CCOC)CCOC)CC3(C)C | 3.3

Answer for every listed entry: what is its τS (lifetime of the lowest singlet excited state)? The entries follow.
1. CC1(C)Cc2cc3[nH]c(cc4nc(cc5[nH]c(cc1n2)cc5C(=O)NCCN)CC4(C)C)cc3C(=O)NCCN
2. CC1(C)Cc2cc3[nH]c(cc4nc(cc5[nH]c(cc1n2)cc5C#CC[N+](C)(C)C)CC4(C)C)cc3C#CC[N+](C)(C)C.[Cl-].[Cl-]

1: 4.0; 2: 3.8

Answer for every listed entry: what is its τS (lifetime of the lowest singlet excited state)? The entries follow.
1. CC1(C)Cc2cc3[nH]c(cc4nc(cc5[nH]c(cc1n2)cc5C(=O)N(CCN)CCN)CC4(C)C)cc3C(=O)N(CCN)CCN
2. CC1(C)Cc2cc3[nH]c(cc4nc(cc5[nH]c(cc1n2)cc5-c1cc(OCCO)cc(OCCO)c1)CC4(C)C)cc3-c1cc(OCCO)cc(OCCO)c1

1. 3.5
2. 3.0
